- Test system: HTT
- Method description: Gene panel canonical junction qPCR assay, HTT CJ mRNA (Table 7)
- Assay type: cell-based, human
- Cond: Homo sapiens, read-out: HTT CJ mRNA decrease IC50
Below, each of the compounds is paired with its reported IC50 value.

For orientation, consider the following solved cases.
Compound | Measured on | Obs value
CCN(CC)C1CCN(c2ccc3c(n2)OCc2cc(-c4cnnc(OC)c4)ccc2-3)C1 (centres unmarked) [Compound 321] | HTT | 100 to 1000 nM
CN(c1ccc2c(n1)COc1cc(-n3cccn3)ccc1-2)[C@@H]1C[C@H]2CC[C@@H](C1)N2 [Compound 124] | HTT | 1000 to 10000 nM
c1cnn(-c2ccc3c(c2)COc2nc(OC4CCNCC4)ccc2-3)c1 [Compound 187] | HTT | 1000 to 10000 nM

Could you share which IC50 value was measured for CN(c1ccc2c(n1)OCc1cc(-n3ccnc3)ccc1-2)[C@@H]1C[C@H]2CC[C@@H](C1)N2 [Compound 163] ?
< 100 nM

Could you share which IC50 value was measured for COc1cc(-c2ccc3c(c2)COc2nc(N4CC[C@@H](NC(C)(C)C)C4)ncc2-3)cnn1 [Compound 278] ?
< 100 nM

Could you share which IC50 value was measured for COc1cc(-c2ccc3c(c2)COc2nc(N4CCN[C@H](C5CC5)C4)ccc2-3)cnn1 [Compound 297] ?
< 100 nM

Could you share which IC50 value was measured for COc1cc(-c2ccc3c(c2)COc2nc(N4CCN5CCCC5C4)ccc2-3)cnn1 (centres unmarked) [Compound 283] ?
100 to 1000 nM

Could you share which IC50 value was measured for COc1cc(-c2ccc3c(c2)COc2nc(N(C)C4CC(C)(C)NC(C)(C)C4)ccc2-3)cnn1 [Compound 231] ?
100 to 1000 nM

Sourced from patent US20240400584A1
